# tested system: Protein Kinase C, Non-Select.
# protocol: Protein Kinase C, Non-Select. enzyme assay
# experimental parameters: historical value; read-out: ^1IC, (IC50 of reference compound)
quantity name: IC50 (µM)
Entry rule: numbers only, all in µM.

Quick one: IC50 of CC1CNCCN1S(=O)(=O)c1cccc2cnccc12 (stereo not shown) [Peptide H-7, reference compound] ?
35

---

# tested system: Histamine H3 (Rattus norvegicus)
# Sequence (Q9QYN8 whole entry): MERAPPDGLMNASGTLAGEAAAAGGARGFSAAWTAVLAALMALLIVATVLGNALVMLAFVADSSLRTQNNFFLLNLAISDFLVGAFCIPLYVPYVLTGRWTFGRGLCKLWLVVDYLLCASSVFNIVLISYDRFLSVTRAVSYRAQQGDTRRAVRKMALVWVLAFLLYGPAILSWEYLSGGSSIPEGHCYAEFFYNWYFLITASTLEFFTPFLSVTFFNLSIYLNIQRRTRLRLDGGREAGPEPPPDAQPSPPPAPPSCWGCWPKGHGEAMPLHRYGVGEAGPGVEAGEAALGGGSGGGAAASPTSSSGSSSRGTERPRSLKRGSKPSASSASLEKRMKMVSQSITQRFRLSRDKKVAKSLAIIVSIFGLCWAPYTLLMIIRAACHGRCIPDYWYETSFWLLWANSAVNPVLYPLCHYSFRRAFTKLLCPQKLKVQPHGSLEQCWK
quantity name: IC50 (nM)
Entry rule: numbers only, all in nM.

// fetch Histamine H3 (Rattus norvegicus) IC50 for CNCCc1cnc[nH]1
2.9

---

# tested system: Ca++/Calmodulin Dep. PK II
# protocol: Ca++/Calmodulin Dep. PK II enzyme assay
# experimental parameters: historical value; read-out: ^1IC, (IC50 of reference compound)
# Description: The peptide was further screened in vitro in a variety of enzyme and biochemical assays. Methods employed were adapted from the scientific literature to maximize reliability and reproducibility. The primary literature reference for each assay is listed in Table 11 opposite the results for each assay. Results presented in Table 10, “Results,” are the average of duplicate determinations, unless otherwise noted. […]
quantity name: pIC50
Entry type: numeric. Quantity: pIC50, the -log10 of concentration in molar units.

Quick one: pIC50 of CN1CCN(CCCN2c3ccccc3Sc3ccc(C(F)(F)F)cc32)CC1 [Trifluoperazine, reference compound] ?
4.57
